Record form. Attribute: IC90. Fill in for each entry.
# Target under test: APOL1 G1 (Homo sapiens, UniProt O14791, I384M/S342G)
# Sequence (O14791 28-398 S342G/I384M): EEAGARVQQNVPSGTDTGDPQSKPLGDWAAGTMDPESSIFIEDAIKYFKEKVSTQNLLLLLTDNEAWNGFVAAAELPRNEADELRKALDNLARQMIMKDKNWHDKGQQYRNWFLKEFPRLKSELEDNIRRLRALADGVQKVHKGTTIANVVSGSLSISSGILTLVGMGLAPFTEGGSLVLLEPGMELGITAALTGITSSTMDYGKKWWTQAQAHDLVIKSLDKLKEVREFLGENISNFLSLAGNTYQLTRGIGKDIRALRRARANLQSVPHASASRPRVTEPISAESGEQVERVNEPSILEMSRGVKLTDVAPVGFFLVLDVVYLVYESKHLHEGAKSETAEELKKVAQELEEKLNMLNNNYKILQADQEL
# Assay notes: MultiTox-Fluor Multiplex Cytotoxicity Assay, tet-inducible APOL1 G1 T-REx-HEK293 cells
# Type: cell-based
# Parameters: expressed in transfected cells; host or cells: T-REx HEK293, clone G1 DC3.25 (pAAVS1-Puro-APOL1 G1)
# Condition: HEK293, Multi-Tox Assay; APOL1 variant (G0/G1/G2) of the HEK293 cells not given; read-out: Multi-Tox Assay IC90

I have this compound here, COCCn1cc([C@@H]2C[C@]3(C[C@H](C)N2)OC[C@@H](O)c2cc(Cl)sc23)nn1 , and I need its recorded IC90.
50 to 500 nM

I have this compound here, C[C@H]1C[C@@]2(C[C@@H](c3cnccn3)N1)OCCc1cc(Cl)sc12 (racemic) , and I need its recorded IC90.
< 50 nM

I have this compound here, Cc1noc(C)c1Cn1cc([C@@H]2C[C@]3(C[C@H](C)N2)OCC(F)(F)c2cc(Cl)sc23)nn1 , and I need its recorded IC90.
< 50 nM

I have this compound here, C[C@H]1C[C@@]2(C[C@@H](c3cn(Cc4cccnn4)nn3)N1)OC[C@@H](O)c1cc(Cl)sc12 , and I need its recorded IC90.
50 to 500 nM

Where do these numbers come from? They come from patent EP4810040A2.
